Values compiled from paper PMC7307925.

# subject-of-test: human serum albumin (HSA) (Homo sapiens, UniProt P02768)
# Sequence (P02768 25-609): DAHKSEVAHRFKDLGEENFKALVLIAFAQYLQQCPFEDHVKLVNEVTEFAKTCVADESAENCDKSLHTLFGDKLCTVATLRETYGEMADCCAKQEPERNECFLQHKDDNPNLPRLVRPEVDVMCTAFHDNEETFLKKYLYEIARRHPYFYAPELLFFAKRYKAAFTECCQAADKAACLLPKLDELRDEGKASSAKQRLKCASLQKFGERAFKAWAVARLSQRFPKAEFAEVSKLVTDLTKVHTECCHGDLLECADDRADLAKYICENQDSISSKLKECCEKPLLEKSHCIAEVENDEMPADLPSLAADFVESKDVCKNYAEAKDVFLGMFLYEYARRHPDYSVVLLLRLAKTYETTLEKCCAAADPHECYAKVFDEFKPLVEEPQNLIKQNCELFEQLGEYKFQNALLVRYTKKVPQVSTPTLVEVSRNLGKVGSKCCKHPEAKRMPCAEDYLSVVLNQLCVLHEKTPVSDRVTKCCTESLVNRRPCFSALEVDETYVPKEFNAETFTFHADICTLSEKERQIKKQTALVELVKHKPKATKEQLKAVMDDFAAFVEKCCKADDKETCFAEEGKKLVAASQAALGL
# test-summary: UV-pH titration in the presence of HSA (pKa,HSA and pKa shift)
# run-conditions: |pKa − pKa,HSA|, 33.3 μM HSA 1:1
measured-metric: ΔpKa1 of UV-pH titration (ΔpKa of monoprotic APIs)
When you answer, write just the number.

Cc1ncc([N+](=O)[O-])n1CCO [Metronidazole] ... 0.00

query: For human serum albumin (HSA) (Homo sapiens, UniProt P02768), provide ΔpKa1 of UV-pH titration (ΔpKa of monoprotic APIs) of COc1cc(Cc2cnc(N)nc2N)cc(OC)c1OC [Trimethoprim] please.
result: 0.01

query: For human serum albumin (HSA) (Homo sapiens, UniProt P02768), provide ΔpKa1 of UV-pH titration (ΔpKa of monoprotic APIs) of CCN(CC)Cc1cc(Nc2ccnc3cc(Cl)ccc23)ccc1O [Amodiaquine] please.
result: 0.12

query: For human serum albumin (HSA) (Homo sapiens, UniProt P02768), provide ΔpKa1 of UV-pH titration (ΔpKa of monoprotic APIs) of NC(N)=Nc1nc(CSCCC(N)=NS(N)(=O)=O)cs1 [Famotidine] please.
result: 0.02

query: For human serum albumin (HSA) (Homo sapiens, UniProt P02768), provide ΔpKa1 of UV-pH titration (ΔpKa of monoprotic APIs) of CNC(=O)Oc1ccc2c(c1)[C@]1(C)CCN(C)[C@@H]1N2C [Physostigmine] please.
result: 0.05

query: For human serum albumin (HSA) (Homo sapiens, UniProt P02768), provide ΔpKa1 of UV-pH titration (ΔpKa of monoprotic APIs) of O=C1CN=C(c2ccccc2)c2cc([N+](=O)[O-])ccc2N1 [Nitrazepam] please.
result: 0.05

query: For human serum albumin (HSA) (Homo sapiens, UniProt P02768), provide ΔpKa1 of UV-pH titration (ΔpKa of monoprotic APIs) of NNC(=O)c1ccncc1 [Isoniazid] please.
result: 0.05

###

# test-summary: UV-pH titration, pKa in aqueous medium (SiriusT3 fast UV pKa method)
# run-conditions: ionic strength adjusted water (0.15 M KCl), without HSA, Exp. aqueous pKa2, absence of HSA, ISA-water 0.15 M KCl, 25.0 °C
measured-metric: pKa
When you answer, write just the number.

Worked cases, answers included:
CN1C(C(=O)Nc2ccccn2)=C(O)c2sc(Cl)cc2S1(=O)=O [Lornoxicam] ... 5.09
O=C(O)c1cc(-c2ccc(F)cc2F)ccc1O [Diflunisal] ... 12.7
CO/N=C(\C(=O)N[C@@H]1C(=O)N2C(C(=O)O)=C(COC(N)=O)CS[C@H]12)c1ccco1 [Cefuroxime] ... 10.9

Now turn to the next compound.
query: # query: pKa of entry NNC(=O)c1ccncc1 [Isoniazid]
result: 10.8

###

Each item that follows carries a reported HSA% (HPLC), experimental data.
# subject-of-test: human serum albumin (HSA) (Homo sapiens)
# test-summary: HSA binding by biomimetic chromatography on immobilized HSA column (Chiralpak-HSA)
Response body: numeric value in %, unit text excluded.

O=C1NC(=O)C(c2ccccc2)(c2ccccc2)N1 ... 82.4
CN1C(C(=O)Nc2ccccn2)=C(O)c2sc(Cl)cc2S1(=O)=O ... 100

query: For human serum albumin (HSA) (Homo sapiens), provide HSA% (HPLC), experimental data of NS(=O)(=O)c1cc2c(cc1Cl)N=CNS2(=O)=O [Chlorothiazide] please.
result: 89.9

query: For human serum albumin (HSA) (Homo sapiens), provide HSA% (HPLC), experimental data of `CNC(=O)Oc1ccc2c(c1)[C@]1(C)CCN(C)[C@@H]1N2C` please.
result: 20

query: For human serum albumin (HSA) (Homo sapiens), provide HSA% (HPLC), experimental data of `CCCCC1(C)C(=O)N(c2ccccc2)N(c2ccccc2)C1=O` please.
result: 85

query: For human serum albumin (HSA) (Homo sapiens), provide HSA% (HPLC), experimental data of `CN(C)CCCN1c2ccccc2CCc2ccccc21` please.
result: 84.9

query: For human serum albumin (HSA) (Homo sapiens), provide HSA% (HPLC), experimental data of NC(=O)N1c2ccccc2C=Cc2ccccc21 [Carbamazepine] please.
result: 73.1

query: For human serum albumin (HSA) (Homo sapiens), provide HSA% (HPLC), experimental data of `CCCCc1c(OC)n(-c2ccccc2)n(-c2ccccc2)c1=O` please.
result: 92.9

query: For human serum albumin (HSA) (Homo sapiens), provide HSA% (HPLC), experimental data of `CC1(C)S[C@@H]2[C@H](NC(=O)[C@H](N)c3ccc(O)cc3)C(=O)N2[C@H]1C(=O)O` please.
result: 12.8

###

# subject-of-test: human serum albumin (HSA) (Homo sapiens)
# test-summary: HSA binding by biomimetic chromatography on immobilized HSA column (Chiralpak-HSA)
measured-metric: HSA% (HPLC), experimental data (%)
Response body: numeric value in %, unit text excluded.

Cc1ccnc(NS(=O)(=O)c2ccc(N)cc2)n1 ... 80.9
CN/C(=N/CCSCc1nc[nH]c1C)NC#N ... 20.2

Now turn to the next compound.
query: # query: HSA% (HPLC), experimental data of entry `NNC(=O)c1ccncc1`
result: 10.9

###

Each item that follows carries a reported HSA% (HPLC), experimental data.
# subject-of-test: human serum albumin (HSA) (Homo sapiens, UniProt P02768)
# test-summary: HSA binding by biomimetic chromatography on immobilized HSA column (Chiralpak-HSA)
Response body: numeric value in %, unit text excluded.

query: # query: HSA% (HPLC), experimental data of entry CC(C)(C)NCC(O)c1cc(O)cc(O)c1 (stereo not drawn)
result: 16.7

query: # query: HSA% (HPLC), experimental data of entry `NC(N)=Nc1nc(CSCCC(N)=NS(N)(=O)=O)cs1`
result: 25.1

###

# subject-of-test: human serum albumin (HSA) (Homo sapiens, UniProt P02768)
# test-summary: HSA binding by biomimetic chromatography on immobilized HSA column (Chiralpak-HSA)
Each item that follows carries a reported HSA% (HPLC), experimental data.
Response body: numeric value in %, unit text excluded.

Cc1cnc(NC(=O)C2=C(O)c3ccccc3S(=O)(=O)N2C)s1 [Meloxicam] ... 99.9
COC1=C(C(=O)Nc2ncc(C)s2)N(C)S(=O)(=O)c2ccccc21 [O-Methyl-meloxicam] ... 84.2
O=C1CN=C(c2ccccc2)c2cc([N+](=O)[O-])ccc2N1 [Nitrazepam] ... 76.7
CC(=O)Oc1ccccc1C(=O)O [Aspirin] ... 53.3
CO/N=C(\C(=O)N[C@@H]1C(=O)N2C(C(=O)O)=C(COC(C)=O)CS[C@H]12)c1csc(N)n1 [Cefotaxime] ... 59.6
CCN(CC)CCCC(C)Nc1ccnc2cc(Cl)ccc12 (stereo not shown) [Chloroquine] ... 50.5

Now turn to the next molecule.
query: For human serum albumin (HSA) (Homo sapiens, UniProt P02768), provide HSA% (HPLC), experimental data of COc1cc(Cc2cnc(N)nc2N)cc(OC)c1OC [Trimethoprim] please.
result: 37.3
